study_target: mGlyT-1b (Mus musculus, UniProt P28571)
Construct: host or cells: Flp-in-CHO
Sequence (P28571 1-651 isoform P28571-2): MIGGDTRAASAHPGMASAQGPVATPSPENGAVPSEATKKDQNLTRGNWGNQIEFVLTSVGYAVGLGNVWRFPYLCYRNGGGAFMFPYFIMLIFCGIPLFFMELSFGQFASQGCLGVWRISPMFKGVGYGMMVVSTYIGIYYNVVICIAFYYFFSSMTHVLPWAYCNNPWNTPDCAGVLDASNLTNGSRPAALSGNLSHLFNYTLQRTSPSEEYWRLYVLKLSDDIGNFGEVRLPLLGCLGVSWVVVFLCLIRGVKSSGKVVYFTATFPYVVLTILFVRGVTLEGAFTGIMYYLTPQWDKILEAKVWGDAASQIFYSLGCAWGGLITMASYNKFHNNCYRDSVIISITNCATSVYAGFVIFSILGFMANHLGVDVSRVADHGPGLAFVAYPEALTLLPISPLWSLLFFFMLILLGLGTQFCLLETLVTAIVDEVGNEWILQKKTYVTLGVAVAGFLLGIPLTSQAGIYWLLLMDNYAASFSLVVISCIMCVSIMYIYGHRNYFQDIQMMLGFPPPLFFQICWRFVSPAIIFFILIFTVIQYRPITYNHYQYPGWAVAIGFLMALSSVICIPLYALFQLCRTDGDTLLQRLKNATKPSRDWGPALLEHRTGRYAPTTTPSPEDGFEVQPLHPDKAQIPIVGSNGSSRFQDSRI
procedure_text: Glycine uptake inhibition assay (mGlyT-1b)
Type: cell-based
recorded_conditions: inhibition of [3H]-glycine uptake in Flp-in-CHO cells transfected with mGlyT-1b cDNA; 20 min preincubation at 22° C.; read-out: IC50 (μM) at GlyT-1
Assignment: determine reported log10 of IC50 for the given compounds.
Answers are given as log10 of IC50 in µM.

Query string: May I ask what log10 of IC50 has been recorded for `CS(=O)(=O)c1ccc(OCC(F)(F)C(F)(F)F)c(C(=O)N2Cc3cnc(C(F)(F)F)cc3C2)c1` ?
Result string: -1.36

Query string: May I ask what log10 of IC50 has been recorded for `C[C@H](Oc1ccc(S(C)(=O)=O)cc1C(=O)N1Cc2cc(F)c(C3CCOCC3)cc2C1)C(F)(F)F` ?
Result string: -2.70

Query string: May I ask what log10 of IC50 has been recorded for `Cc1cscc1-c1ccc2c(c1)CN(C(=O)c1cc(S(C)(=O)=O)ccc1O[C@@H](C)C(F)(F)F)C2` ?
Result string: -1.47

Query string: May I ask what log10 of IC50 has been recorded for `CS(=O)(=O)c1ccc(-c2ccc(F)c(F)c2)c(C(=O)N2Cc3cc(C(F)(F)F)cnc3C2)c1` ?
Result string: -1.49

Query string: May I ask what log10 of IC50 has been recorded for `CCSc1ccc2c(c1)CN(C(=O)c1cc(S(C)(=O)=O)ccc1O[C@@H](C)C(F)(F)F)C2` ?
Result string: -1.43

Query string: May I ask what log10 of IC50 has been recorded for `CC(C)Oc1ccc(S(C)(=O)=O)cc1C(=O)N1Cc2cc(F)c(OC3CCOCC3)cc2C1` ?
Result string: -1.46

Query string: May I ask what log10 of IC50 has been recorded for `Cc1cc(-c2ccc3c(c2)CN(C(=O)c2cc(S(C)(=O)=O)ccc2O[C@@H](C)C(F)(F)F)C3)ccn1` ?
Result string: -2.52

Query string: May I ask what log10 of IC50 has been recorded for `COc1cc2c(cc1Cl)CN(C(=O)c1cc(S(C)(=O)=O)ccc1SC(C)C)C2` ?
Result string: -1.31

Query string: May I ask what log10 of IC50 has been recorded for CC(C)Oc1ccc(S(C)(=O)=O)cc1C(=O)N1Cc2ccc(C3CCOC3)cc2C1 (racemic) ?
Result string: -1.66

Query string: May I ask what log10 of IC50 has been recorded for `CC(C)COc1ccc(S(C)(=O)=O)cc1C(=O)N1Cc2ccc(C3CCOCC3)cc2C1` ?
Result string: -1.46

Query string: May I ask what log10 of IC50 has been recorded for `C[C@H](Oc1ccc(S(C)(=O)=O)cc1C(=O)N1Cc2cc(Cl)c(OC3CCOCC3)cc2C1)C(F)(F)F` ?
Result string: -1.82

Query string: May I ask what log10 of IC50 has been recorded for `CS(=O)(=O)c1ccc(OCC(F)(F)C(F)(F)F)c(C(=O)N2Cc3cc(Cl)c(OC4CCOCC4)cc3C2)c1` ?
Result string: -2.30

Query string: May I ask what log10 of IC50 has been recorded for `CC(C)(C)COc1ccc(S(C)(=O)=O)cc1C(=O)N1Cc2ccc(C3CCOCC3)cc2C1` ?
Result string: -1.33

Query string: May I ask what log10 of IC50 has been recorded for `C[C@H](Oc1ccc(S(C)(=O)=O)cc1C(=O)N1Cc2ccc(C3CCOCC3)cc2C1)C(F)(F)F` ?
Result string: -1.85

Query string: May I ask what log10 of IC50 has been recorded for `COc1cc2c(cc1Cl)CN(C(=O)c1cc(S(C)(=O)=O)ccc1OCC(C)C)C2` ?
Result string: -1.66
